- assay_method_text: amyloid nucleation score (Sup35N fusion, yeast selection) (log enrichment); library NNK2; higher = more nucleation; inactive = no reads after selection;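 also: zero at mode of non-aggregating sequences after 7 days selection at 30°C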
reported_metric: amyloid nucleation score

[
  {
    "substance": "VRLEPSHRVCRRVRLTSILR",
    "amyloid nucleation score": "inactive"
  },
  {
    "substance": "YASISI",
    "amyloid nucleation score": "inactive"
  },
  {
    "substance": "KVIMVLFRFDMSIWGWQTDI",
    "amyloid nucleation score": -0.628
  },
  {
    "substance": "MSRSVVESQMVLSDDFWHQG",
    "amyloid nucleation score": -0.41
  },
  {
    "substance": "LWVLTSRDDVFMVVFFMTPK",
    "amyloid nucleation score": -0.483
  }
]

SMRYVVISKQRSILEISLRY has a reported amyloid nucleation score of 3.46

CQAYSSIRFEVL has a reported amyloid nucleation score of inactive

DSDSFYIMPMVHMPNNFHRD has a reported amyloid nucleation score of -1.41

VTNVSQISNSRNVMERSIMF has a reported amyloid nucleation score of -1.2
